- target.system: human TAS2R1 (Homo sapiens, UniProt Q9NYW7)
- Construct: expressed in transfected cells; host or cells: HEK293T-Gα16gust44
- Sequence (Q9NYW7 whole entry): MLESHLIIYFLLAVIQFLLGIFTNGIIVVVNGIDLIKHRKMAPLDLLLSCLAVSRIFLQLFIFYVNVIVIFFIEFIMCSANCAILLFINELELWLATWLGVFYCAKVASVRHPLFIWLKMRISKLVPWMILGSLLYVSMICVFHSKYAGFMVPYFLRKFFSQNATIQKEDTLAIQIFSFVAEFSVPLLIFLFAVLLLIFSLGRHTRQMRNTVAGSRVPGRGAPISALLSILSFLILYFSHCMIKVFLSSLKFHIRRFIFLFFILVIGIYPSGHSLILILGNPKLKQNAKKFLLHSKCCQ
- method.summary: Calcium imaging assay (FLIPR), HEK293T-Gα16gust44 cells transfected with human TAS2R1
- Format: cell-based
- test.conditions: Time 102.796 s
- Protocol: This set of bile acids was chosen because of their commercial availability in high purities, their diversity within the class of bile acids and their previous detection and quantitation in human blood. Stock solutions were prepared in DMSO. […] Measured data were negative control corrected by subtracting the signal of the mock-transfected cells and exported to Microsoft Excel using the FLIPR software ScreenWorks 4.2. […]
measured.attribute: RLU (RLU)

- C[C@H](CCC(=O)O)[C@H]1CC[C@H]2[C@@H]3[C@H](O)C[C@@H]4C[C@H](O)CC[C@]4(C)[C@H]3CC[C@]12C: 713.847
- C[C@H](CCC(=O)O)[C@H]1CC[C@H]2[C@@H]3CC[C@@H]4C[C@H](O)CC[C@]4(C)[C@H]3CC[C@]12C: 894.991
- C[C@H](CCC(=O)O)[C@H]1CC[C@H]2[C@@H]3[C@@H](O)C[C@@H]4C[C@H](O)CC[C@]4(C)[C@H]3CC[C@]12C: 464.491
- C[C@H](CCC(=O)O)[C@H]1CC[C@H]2[C@@H]3[C@H](O)C[C@@H]4C[C@H](O)CC[C@]4(C)[C@H]3C[C@H](O)[C@]12C: 574.755

###

- target.system: mouse Tas2r105 (Mus musculus, UniProt Q9JKT4)
- Construct: expressed in transfected cells; host or cells: HEK293T-Gα16gust44
- Sequence (Q9JKT4 whole entry): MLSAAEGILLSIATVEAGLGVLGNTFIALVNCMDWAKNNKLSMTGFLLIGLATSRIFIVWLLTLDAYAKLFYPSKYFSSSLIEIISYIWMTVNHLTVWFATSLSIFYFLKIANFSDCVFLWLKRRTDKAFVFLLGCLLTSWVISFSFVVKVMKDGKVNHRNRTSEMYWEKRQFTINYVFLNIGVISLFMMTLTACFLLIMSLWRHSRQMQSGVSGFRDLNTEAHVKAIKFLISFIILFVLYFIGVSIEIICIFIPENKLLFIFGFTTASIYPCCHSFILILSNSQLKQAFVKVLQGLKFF
- method.summary: Calcium imaging assay (FLIPR), HEK293T-Gα16gust44 cells transfected with mouse Tas2r105
- Type: cell-based
- test.conditions: Time 68.781 s
Collected RLU values appear next to each entry.
measured.attribute: RLU

* C[C@H](CCC(=O)NCC(=O)O)[C@H]1CC[C@H]2[C@@H]3[C@H](O)C[C@@H]4C[C@H](O)CC[C@]4(C)[C@H]3C[C@H](O)[C@]12C | 419.549 RLU
* C[C@H](CCC(=O)O)[C@H]1CC[C@H]2[C@@H]3CC[C@@H]4C[C@H](O)CC[C@]4(C)[C@H]3C[C@H](O)[C@]12C | 34.4928 RLU
* C[C@H](CCC(=O)O)[C@H]1CC[C@H]2[C@@H]3CC[C@@H]4C[C@H](O)CC[C@]4(C)[C@H]3CC[C@]12C | 132.36 RLU
* C[C@H](CCC(=O)O)[C@H]1CC[C@H]2[C@@H]3[C@H](O)C[C@@H]4C[C@H](O)CC[C@]4(C)[C@H]3C[C@H](O)[C@]12C | 398.01 RLU

###

- target.system: human TAS2R14 (Homo sapiens, UniProt Q9NYV8)
- Construct: expressed in transfected cells; host or cells: HEK293T-Gα16gust44
- Sequence (Q9NYV8 whole entry): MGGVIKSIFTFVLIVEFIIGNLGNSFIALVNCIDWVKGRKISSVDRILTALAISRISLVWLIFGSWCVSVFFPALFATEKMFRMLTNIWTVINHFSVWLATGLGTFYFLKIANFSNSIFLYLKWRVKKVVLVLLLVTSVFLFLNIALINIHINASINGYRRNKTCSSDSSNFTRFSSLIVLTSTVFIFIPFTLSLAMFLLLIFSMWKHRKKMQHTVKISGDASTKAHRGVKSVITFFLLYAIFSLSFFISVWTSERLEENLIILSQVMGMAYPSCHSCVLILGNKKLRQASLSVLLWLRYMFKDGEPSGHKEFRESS
- method.summary: Calcium imaging assay (FLIPR), HEK293T-Gα16gust44 cells transfected with human TAS2R14
- Assay type: cell-based
- test.conditions: TAS2R14 trace; Time (s) 137.562 (Taurocholic Acid 137.563, Chenodeoxycholic Acid 137.546)
Kindly return YES if reported RLU is no lower than 1000 RLU; return NO if it is lower.

* C[C@H](CCC(=O)NCCS(=O)(=O)O)[C@H]1CC[C@H]2[C@@H]3[C@H](O)C[C@@H]4C[C@H](O)CC[C@]4(C)[C@H]3C[C@H](O)[C@]12C [Taurocholic Acid, taurocholic acid] | YES
* C[C@H](CCC(=O)NCC(=O)O)[C@H]1CC[C@H]2[C@@H]3[C@H](O)C[C@@H]4C[C@H](O)CC[C@]4(C)[C@H]3C[C@H](O)[C@]12C [Glycocholic Acid, glycocholic acid] | NO
* C[C@H](CCC(=O)NCCS(=O)(=O)O)[C@H]1CC[C@H]2[C@@H]3CC[C@@H]4C[C@H](O)CC[C@]4(C)[C@H]3CC[C@]12C [Taurolithocholic Acid, taurolithocholic acid] | NO
* C[C@H](CCC(=O)O)[C@H]1CC[C@H]2[C@@H]3[C@H](O)C[C@@H]4C[C@H](O)CC[C@]4(C)[C@H]3C[C@H](O)[C@]12C [Cholic Acid, cholic acid] | YES
* C[C@H](CCC(=O)O)[C@H]1CC[C@H]2[C@@H]3[C@H](O)C[C@@H]4C[C@H](O)CC[C@]4(C)[C@H]3CC[C@]12C [Chenodeoxycholic Acid, chenodeoxycholic acid] | NO
